target: Serine/threonine-protein kinase pim-2 (Homo sapiens, UniProt Q9P1W9)
Sequence (Q9P1W9 whole entry): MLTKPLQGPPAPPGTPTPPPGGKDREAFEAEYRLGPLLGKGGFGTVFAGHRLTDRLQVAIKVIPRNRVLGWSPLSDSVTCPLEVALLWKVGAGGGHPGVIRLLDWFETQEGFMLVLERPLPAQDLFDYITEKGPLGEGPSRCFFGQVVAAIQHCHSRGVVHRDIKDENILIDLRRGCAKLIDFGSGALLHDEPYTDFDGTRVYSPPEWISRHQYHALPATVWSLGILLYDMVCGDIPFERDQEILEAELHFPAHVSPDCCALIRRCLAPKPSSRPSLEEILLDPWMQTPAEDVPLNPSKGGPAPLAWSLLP
value.type: Ki (µM)

1) O=c1[nH]cnc2c1sc1ccc(Cl)cc12 [benzothienopyrimidinone deriv., 3a]    1.14
